Origin of the recorded values: ChEMBL document CHEMBL1765090

Record: EC50 reported on Estrogen receptor beta (Homo sapiens, UniProt Q92731).
Sequence (Q92731 whole entry): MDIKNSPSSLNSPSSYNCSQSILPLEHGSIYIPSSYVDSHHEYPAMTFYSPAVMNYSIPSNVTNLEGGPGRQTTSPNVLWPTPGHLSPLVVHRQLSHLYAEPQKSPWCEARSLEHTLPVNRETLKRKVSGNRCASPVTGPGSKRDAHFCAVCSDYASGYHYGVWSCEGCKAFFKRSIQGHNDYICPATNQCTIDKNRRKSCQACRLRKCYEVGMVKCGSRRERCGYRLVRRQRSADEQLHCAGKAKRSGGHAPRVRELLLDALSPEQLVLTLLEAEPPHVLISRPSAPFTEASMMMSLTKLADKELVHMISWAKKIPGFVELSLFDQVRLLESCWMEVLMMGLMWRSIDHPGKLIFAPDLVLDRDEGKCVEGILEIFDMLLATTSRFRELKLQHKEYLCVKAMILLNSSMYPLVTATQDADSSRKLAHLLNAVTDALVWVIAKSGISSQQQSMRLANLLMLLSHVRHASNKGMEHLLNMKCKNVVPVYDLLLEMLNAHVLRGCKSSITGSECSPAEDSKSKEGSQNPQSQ
Respond with the bare value in µM.

Consider the worked cases shown below.
Request: EC50, test system Estrogen receptor beta (Homo sapiens, UniProt Q92731), entry COc1ccc2c(c1)CCN(C(=O)C(F)(F)F)C2
227

Request: EC50, test system Estrogen receptor beta (Homo sapiens, UniProt Q92731), entry O=S(=O)(c1ccccc1)N1CCc2cc(O)ccc2C1
1

Request: EC50, test system Estrogen receptor beta (Homo sapiens, UniProt Q92731), entry CC(C)(C)OC(=O)N1CCc2cc(O)ccc2C1
1.1

Now consider the entry below.
Request: EC50, test system Estrogen receptor beta (Homo sapiens, UniProt Q92731), entry O=S(=O)(c1cccc2ccccc12)N1CCc2cc(O)ccc2C1
60

---

Record: EC50 reported on Estrogen receptor beta (Homo sapiens, UniProt Q92731).

Consider the worked cases shown below.
Report EC50 for O=C(N1CCc2cc(O)ccc2C1)C(F)(F)F please.
0.9 µM

Report EC50 for CS(=O)(=O)N1CCc2cc(O)ccc2C1 please.
20 µM

Report EC50 for O=S(=O)(c1cccc2ccccc12)N1CCc2ccc(O)cc2C1 please.
30 µM

Report EC50 for O=C(N1CCc2cc(O)ccc2C1)C(F)(F)Cl please.
1.6 µM

Report EC50 for O=S(=O)(N1CCc2cc(O)ccc2C1)C(F)(F)F please.
0.6 µM

Others:
Report EC50 for O=C(N1CCc2ccc(O)cc2C1)C(F)(F)F please.
3.8 µM

Report EC50 for O=C(N1CCc2cc(O)ccc2C1)C(Cl)(Cl)Cl please.
3.2 µM

---

Biological target: Estrogen receptor beta (Homo sapiens, UniProt Q92731)
observed-property: EC50

Report EC50 for CC(=O)N1CCc2ccccc2C1 please.
Not Active

Report EC50 for O=C(N1CCc2ccccc2C1)C(F)(F)F please.
Not Active

Report EC50 for CC(=O)N1CCc2cc(O)ccc2C1 please.
Not Active

Report EC50 for CS(=O)(=O)N1CCc2ccccc2C1 please.
Not Active

---

Target: Estrogen receptor (Homo sapiens, UniProt P03372)
Sequence (P03372 whole entry): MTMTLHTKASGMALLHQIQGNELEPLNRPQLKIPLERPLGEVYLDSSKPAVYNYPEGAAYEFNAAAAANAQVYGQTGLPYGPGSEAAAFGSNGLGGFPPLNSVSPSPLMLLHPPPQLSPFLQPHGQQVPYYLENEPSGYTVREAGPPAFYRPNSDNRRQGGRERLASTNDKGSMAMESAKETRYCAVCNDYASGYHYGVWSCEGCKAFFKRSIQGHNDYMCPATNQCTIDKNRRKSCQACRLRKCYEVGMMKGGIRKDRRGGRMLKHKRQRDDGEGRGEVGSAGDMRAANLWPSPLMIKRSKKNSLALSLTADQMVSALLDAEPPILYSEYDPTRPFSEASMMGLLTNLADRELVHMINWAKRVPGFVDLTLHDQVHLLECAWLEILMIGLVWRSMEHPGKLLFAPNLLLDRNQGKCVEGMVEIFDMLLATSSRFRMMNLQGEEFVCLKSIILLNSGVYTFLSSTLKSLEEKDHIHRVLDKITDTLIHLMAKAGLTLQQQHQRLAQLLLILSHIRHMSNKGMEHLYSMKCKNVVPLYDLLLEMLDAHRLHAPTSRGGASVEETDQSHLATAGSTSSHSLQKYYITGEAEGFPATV
Assay: Transcriptional activation of human ERalpha receptor transfected in human U2OS cells assessed as increase of luciferase activity by estrogen response element-luciferase reporter gene assay
Assay type: cell-based
observed-property: pEC50
Hey, just a heads up that pEC50 is the negative log base 10 of the concentration in molar.

Request: pEC50, test system Estrogen receptor (Homo sapiens, UniProt P03372), entry O=S(=O)(N1CCc2cc(O)ccc2C1)C(F)(F)F
5.73

---

Record: pEC50 reported on UniProtKB P03372.
Hey, just a heads up that pEC50 is the negative log base 10 of the concentration in molar.

Request: pEC50, test system UniProtKB P03372, entry COc1ccc2c(c1)CCN(C(=O)C(F)(F)F)C2
3.47

Request: pEC50, test system UniProtKB P03372, entry O=C(N1CCc2cc(O)ccc2C1)C(Cl)(Cl)Cl
5.21

Request: pEC50, test system UniProtKB P03372, entry O=C(N1CCc2cc(O)ccc2C1)C(F)(F)F
5.28

Request: pEC50, test system UniProtKB P03372, entry O=S(=O)(c1cccc2ccccc12)N1CCc2ccc(O)cc2C1
3.22

Others:
Request: pEC50, test system UniProtKB P03372, entry CS(=O)(=O)N1CCc2cc(O)ccc2C1
3.77

---

Molecular target: Estrogen receptor beta (Homo sapiens, UniProt Q92731)
Assay: Transcriptional activation of human ERbeta receptor transfected in human U2OS cells assessed as increase of luciferase activity by estrogen response element-luciferase reporter gene assay
Assay type: cell-based
observed-property: pEC50
Hey, just a heads up that pEC50 is the negative log base 10 of the concentration in molar.

Report pEC50 for O=S(=O)(N1CCc2cc(O)ccc2C1)C(F)(F)F please.
6.51

---

Record: EC50 reported on Estrogen receptor (Homo sapiens, UniProt P03372).
Please answer in the form of a number followed by its unit of measurement.

Report EC50 for O=C(N1CCc2cc(O)ccc2C1)C(F)(F)Cl please.
2.3 µM

Others:
Report EC50 for O=C(N1CCc2ccc(O)cc2C1)C(F)(F)F please.
20 µM

Report EC50 for O=S(=O)(N1CCc2cc(O)ccc2C1)C(F)(F)F please.
3 µM

Report EC50 for O=S(=O)(c1cccc2ccccc12)N1CCc2cc(O)ccc2C1 please.
700 µM
